# Test system: MCF7
# experimental details: percentage of EdU-negative (G0-arrested) nuclei per well, 72 h; higher = more G0 arrest;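 also: secreted proteins added to cultured cells, EdU pulse at the end, nuclei found by Hoechst imaging, EdU status from nuclear versus surrounding ring intensity ratio, PBS as neutral control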
# assay setup: protein concentration 0.0225 µM; reference: sequence is the full UniProt precursor, the tested protein was the secreted form or ectodomain
recorded endpoint: percentage of EdU-negative (%)
Please state the figure in %; there is no need to write the unit.

INSERT INTO assay_data (sequence_string, unit_label, measured_number) VALUES
  ('MARRSRHRLLLLLLRYLVVALGYHKAYGFSAPKDQQVVTAVEYQEAILACKTPKKTVSSRLEWKKLGRSVSFVYYQQTLQGDFKNRAEMIDFNIRIKNVTRSDAGKYRCEVSAPSEQGQNLEEDTVTLEVLVAPAVPSCEVPSSALSGTVVELRCQDKEGNPAPEYTWFKDGIRLLENPRLGSQSTNSSYTMNTKTGTLQFNTVSKLDTGEYSCEARNSVGYRRCPGKRMQVDDLNISGIIAAVVVVALVISVCGLGVCYAQRKGYFSKETSFQKSNSSSKATTMSENDFKHTKSFII', '%', 24.2),
  ('MAKSFPVFSLLSFILIHLVLSSVSGPRHWWPPRGIIKVKCPYEKVNLSWYNGTVNPCPGLYQPICGTNFITYDNPCILCVESLKSHGRIRFYHDGKC [Q6IE38]', '%', 24),
  ('MLLLPFQLLAVLFPGGNSEHAFQGPTSFHVIQTSSFTNSTWAQTQGSGWLDDLQIHGWDSDSGTAIFLKPWSKGNFSDKEVAELEEIFRVYIFGFAREVQDFAGDFQMKYPFEIQGIAGCELHSGGAIVSFLRGALGGLDFLSVKNASCVPSPEGGSRAQKFCALIIQYQGIMETVRILLYETCPRYLLGVLNAGKADLQRQVKPEAWLSSGPSPGPGRLQLVCHVSGFYPKPVWVMWMRGEQEQQGTQLGDILPNANWTWYLRATLDVADGEAAGLSCRVKHSSLEGQDIILYWRNPTSIGSIVLAIIVPSLLLLLCLALWYMRRRSYQNIP', '%', 25.9);

Kindly review the next sequence as well.
Lookup: Which percentage of EdU-negative is listed for MVSRMVSTMLSGLLFWLASGWTPAFAYSPRTPDRVSEADIQRLLHGVMEQLGIARPRVEYPAHQAMNLVGPQSIEGGAHEGLQHLGPFGNIPNIVAELTGDNIPKDFSEDQGYPDPPNPCPVGKTADDGCLENTPDTAEFSREFQLHQHLFDPEHDYPGLGKWNKKLLYEKMKGGERRKRRSVNPYLQGQRLDNVVAKKSVPHFSDEDKDPE ?
Found: 26.6

* * *

# Test system: hTERT-HMEC
# experimental details: percentage of EdU-negative (G0-arrested) nuclei per well, 72 h; higher = more G0 arrest
# assay setup: protein concentration 0.3125 µM; reference: sequence is the full UniProt precursor, the tested protein was the secreted form or ectodomain
# reported percentage of EdU-negative; entries follow
Please state the figure in %; there is no need to write the unit.

INSERT INTO assay_data (sequence_string, recorded_endpoint, measured_number) VALUES
  ('MALSFSLLMAVLVLSYKSICSLGCDLPQTHSLGNRRALILLAQMGRISHFSCLKDRYDFGFPQEVFDGNQFQKAQAISAFHEMIQQTFNLFSTKDSSAAWDETLLDKFYIELFQQLNDLEACVTQEVGVEEIALMNEDSILAVRKYFQRITLYLMGKKYSPCAWEVVRAEIMRSFSFSTNLQKGLRRKD', 'percentage of EdU-negative', 18.9),
  ('MTDRQTDTAPSPSYHLLPGRRRTVDAAASRGQGPEPAPGGGVEGVGARGVALKLFVQLLGCSRFGGAVVRAGEAEPSGAARSASSGREEPQPEEGEEEEEKEEERGPQWRLGARKPGSWTGEAAVCADSAPAARAPQALARASGRGGRVARRGAEESGPPHSPSRRGSASRAGPGRASETMNFLLSWVHWSLALLLYLHHAKWSQAAPMAEGGGQNHHEVVKFMDVYQRSYCHPIETLVDIFQEYPDEIEYIFKPSCVPLMRCGGCCNDEGLECVPTEESNITMQIMRIKPHQGQHIGEMSFLQHNKCECRPKKDRARQEKKSVRGKGKGQKRKRKKSRYKSWSVPCGPCSERRKHLFVQDPQTCKCSCKNTDSRCKARQLELNERTCRCDKPRR', 'percentage of EdU-negative', 5.48);

Kindly review the next sequence as well.
Lookup: Which percentage of EdU-negative is listed for MRFLAATFLLLALSTAAQAEPVQFKDCGSVDGVIKEVNVSPCPTQPCQLSKGQSYSVNVTFTSNIQSKSSKAVVHGILMGVPVPFPIPEPDGCKSGINCPIQKDKTYSYLNKLPVKSEYPSIKLVVEWQLQDDKNQSLFCWEIPVQIVSHL ?
Found: 5.49

* * *

# reported percentage of EdU-negative; entries follow
# Test system: MCF7
# experimental details: percentage of EdU-negative (G0-arrested) nuclei per well, 72 h; higher = more G0 arrest
# assay setup: protein concentration 0.0357143 µM; reference: sequence is the full UniProt precursor, the tested protein was the secreted form or ectodomain
Please state the figure in %; there is no need to write the unit.

INSERT INTO results (sequence_string, subject_of_test, unit_label, measured_number) VALUES
  ('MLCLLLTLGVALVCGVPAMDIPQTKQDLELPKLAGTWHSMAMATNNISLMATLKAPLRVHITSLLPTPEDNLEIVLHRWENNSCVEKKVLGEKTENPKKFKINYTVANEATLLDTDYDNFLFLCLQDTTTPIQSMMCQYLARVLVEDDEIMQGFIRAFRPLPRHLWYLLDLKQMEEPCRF', 'MCF7', '%', 24.5),
  ('MELWGAYLLLCLFSLLTQVTTEPPTQKPKKIVNAKKDVVNTKMFEELKSRLDTLAQEVALLKEQQALQTVCLKGTKVHMKCFLAFTQTKTFHEASEDCISRGGTLGTPQTGSENDALYEYLRQSVGNEAEIWLGLNDMAAEGTWVDMTGARIAYKNWETEITAQPDGGKTENCAVLSGAANGKWFDKRCRDQLPYICQFGIV', 'MCF7', '%', 23.3);

Kindly review the next sequence as well.
Lookup: Under MCF7: percentage of EdU-negative value of MLTTLLPILLLSGWAFCSQDASDGLQRLHMLQISYFRDPYHVWYQGNASLGGHLTHVLEGPDTNTTIIQLQPLQEPESWARTQSGLQSYLLQFHGLVRLVHQERTLAFPLTIRCFLGCELPPEGSRAHVFFEVAVNGSSFVSFRPERALWQADTQVTSGVVTFTLQQLNAYNRTRYELREFLEDTCVQYVQKHISAENTKGSQTSRSYTSLVLGVLVGSFIIAGVAVGIFLCTGGRRC [Q9UNN8] ?
Found: 24.2

* * *

# Test system: MCF7
# experimental details: percentage of EdU-negative (G0-arrested) nuclei per well, 72 h; higher = more G0 arrest
# assay setup: protein concentration 0.225 µM; reference: sequence is the full UniProt precursor, the tested protein was the secreted form or ectodomain
recorded endpoint: percentage of EdU-negative (%)
Please state the figure in %; there is no need to write the unit.

INSERT INTO assay_data (sequence_string, subject_of_test, measured_number) VALUES
  ('MVAGSDAGRALGVLSVVCLLHCFGFISCFSQQIYGVVYGNVTFHVPSNVPLKEVLWKKQKDKVAELENSEFRAFSSFKNRVYLDTVSGSLTIYNLTSSDEDEYEMESPNITDTMKFFLYVLESLPSPTLTCALTNGSIEVQCMIPEHYNSHRGLIMYSWDCPMEQCKRNSTSIYFKMENDLPQKIQCTLSNPLFNTTSSIILTTCIPSSGHSRHRYALIPIPLAVITTCIVLYMNGILKCDRKPDRTNSN', 'MCF7', 26.7),
  ('MAARALCMLGLVLALLSSSSAEEYVGLSANQCAVPAKDRVDCGYPHVTPKECNNRGCCFDSRIPGVPWCFKPLQEAECTF', 'MCF7', 24);

Kindly review the next sequence as well.
Lookup: Which percentage of EdU-negative is listed for MGPLINRCKKILLPTTVPPATMRIWLLGGLLPFLLLLSGLQRPTEGSEVAIKIDFDFAPGSFDDQYQGCSKQVMEKLTQGDYFTKDIEAQKNYFRMWQKAHLAWLNQGKVLPQNMTTTHAVAILFYTLNSNVHSDFTRAMASVARTPQQYERSFHFKYLHYYLTSAIQLLRKDSIMENGTLCYEVHYRTKDVHFNAYTGATIRFGQFLSTSLLKEEAQEFGNQTLFTIFTCLGAPVQYFSLKKEVLIPPYELFKVINMSYHPRGDWLQLRSTGNLSTYNCQLLKASSKKCIPDPIAIASLSFLTSVIIFSKSRV ?
Found: 27.2

* * *

# Tested on: MCF7
# experimental details: percentage of EdU-negative (G0-arrested) nuclei per well, 72 h; higher = more G0 arrest
# assay setup: protein concentration 0.225 µM; reference: sequence is the full UniProt precursor, the tested protein was the secreted form or ectodomain
# reported percentage of EdU-negative; entries follow
Please state the figure in %; there is no need to write the unit.

INSERT INTO results (sequence_string, measured_number) VALUES
  ('MAQRMTTQLLLLLVWVAVVGEAQTRIAWARTELLNVCMNAKHHKEKPGPEDKLHEQCRPWRKNACCSTNTSQEAHKDVSYLYRFNWNHCGEMAPACKRHFIQDTCLYECSPNLGPWIQQVDQSWRKERVLNVPLCKEDCEQWWEDCRTSYTCKSNWHKGWNWTSGFNKCAVGAACQPFHFYFPTPTVLCNEIWTHSYKVSNYSRGSGRCIQMWFDPAQGNPNEEVARFYAAAMSGAGPWAAWPFLLSLALMLLWLLS', 24.4),
  ('MAGPPRLLLLPLLLALARGLPGALAAQEVQQSPHCTTVPVGASVNITCSTSGGLRGIYLRQLGPQPQDIIYYEDGVVPTTDRRFRGRIDFSGSQDNLTITMHRLQLSDTGTYTCQAITEVNVYGSGTLVLVTEEQSQGWHRCSDAPPRASALPAPPTGSALPDPQTASALPDPPAASALPAALAVISFLLGLGLGVACVLARTQIKKLCSWRDKNSAACVVYEDMSHSRCNTLSSPNQYQ', 24.7),
  ('MDLSLLWVLLPLVTMAWGQYGDYGYPYQQYHDYSDDGWVNLNRQGFSYQCPQGQVIVAVRSIFSKKEGSDRQWNYACMPTPQSLGEPTECWWEEINRAGMEWYQTCSNNGLVAGFQSRYFESVLDREWQFYCCRYSKRCPYSCWLTTEYPGHYGEEMDMISYNYDYYIRGATTTFSAVERDRQWKFIMCRMTEYDCEFANV', 26.2);

Kindly review the next sequence as well.
Lookup: Which percentage of EdU-negative is listed for MICLVLTIFANLFPAACTGAHERTFLAVKPDGVQRRLVGEIVRRFERKGFKLVALKLVQASEELLREHYAELRERPFYGRLVKYMASGPVVAMVWQGLDVVRTSRALIGATNPADAPPGTIRGDFCIEVGKNLIHGSDSVESARREIALWFRADELLCWEDSAGHWLYE ?
Found: 22.9
